Data origin, for the record: patent US9314468B2

Reported pIC50 values follow for various molecules
Biological target: CXCR4 (Homo sapiens (Human))
Sequence (P61073 whole entry): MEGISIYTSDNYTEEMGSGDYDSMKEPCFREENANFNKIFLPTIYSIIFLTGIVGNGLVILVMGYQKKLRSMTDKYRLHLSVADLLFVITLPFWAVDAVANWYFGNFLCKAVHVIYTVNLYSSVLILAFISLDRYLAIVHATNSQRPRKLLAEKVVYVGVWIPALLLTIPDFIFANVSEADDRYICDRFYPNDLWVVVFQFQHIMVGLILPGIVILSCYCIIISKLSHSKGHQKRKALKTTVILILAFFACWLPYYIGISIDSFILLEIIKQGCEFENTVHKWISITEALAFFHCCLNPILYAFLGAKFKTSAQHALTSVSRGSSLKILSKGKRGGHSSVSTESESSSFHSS
Test: Functional calcium mobilization assay (SDF-1α induced)
Type: cell-based
Settings: CEM cells, SDF-1α challenge at EC80-EC90; read-out: Ca Flux IC50
Protocol: Functional modulation of CXCR4 was determined by calcium mobilization assay using leukemic lymphoid CEM cells, which naturally express high levels of CXCR4. Generally, the assay is carried out as follows: Cells are grown in vitro to confluency. […] Compound plates were generated containing up to 3% dimethyl sulfoxide in media kept at room temperature. […] This first read was used to determine direct agonist activation of the CXCR4 receptor by the test compounds. […]
pIC50: −log10 of the molar value.

{"molecule": "c1cnc2c(c1)CCC[C@@H]2N(CCCN1CCNCC1)Cc1nccc2c1[nH]c1ccccc12", "pIC50": 7.06}
{"molecule": "NCCCCN(Cc1cc2c(cn1)[nH]c1ccccc12)C1CCCc2cccnc21 (centres unmarked)", "pIC50": 7.16}
{"molecule": "c1ccc(Cn2c3ccccc3c3ccnc(CN(CCCN4CCNCC4)[C@H]4CCCc5cccnc54)c32)cc1", "pIC50": 6.82}
{"molecule": "O=C1CN(CCCN(Cc2nccc3c4ccccc4n(CCCN4C(=O)c5ccccc5C4=O)c23)[C@H]2CCCc3cccnc32)CCN1", "pIC50": 6.86}
{"molecule": "NCCCCN(Cc1nccc2c3ccccc3n(CCN3CCNCC3)c12)[C@H]1CCCc2cccnc21 [drawing 754]", "pIC50": 7.20}

----------
Experiment: Cytotoxicity assay, 6 days
Type: cell-based
Settings: human, CCRF-CEM cells
endpoint: EC50 at 6 days

{"compound": "NCCCCN(Cc1nccc2c3ccccc3n(CC(=O)NC3CCNCC3)c12)C1CCCc2cccnc21 (stereo not shown) [drawing 821]", "reading": "30 µM"}
{"compound": "NCCCCN(Cc1nccc2c3ccccc3n(CCCN3CCNCC3)c12)[C@H]1CCCc2cccnc21 [drawing 822]", "reading": "30 µM"}
{"compound": "O=C(O)Cn1c2ccccc2c2ccnc(CN(CCCN3CCNCC3)[C@H]3CCCc4cccnc43)c21 [drawing 828]", "reading": "> 10 µM"}
{"compound": "O=C(Cn1c2ccccc2c2ccnc(CN(CCCN3CCNCC3)[C@H]3CCCc4cccnc43)c21)C1CCOCC1", "reading": "30 µM"}
{"compound": "NCCCCN(Cc1nccc2c3ccccc3n(CCN3CCNCC3)c12)[C@H]1CCCc2cccnc21 [drawing 829]", "reading": "> 10 µM"}
{"compound": "NCCCCN(Cc1nccc2c3ccccc3n(CC(=O)O)c12)[C@H]1CCCc2cccnc21 [drawing 820]", "reading": "30 µM"}
{"compound": "NCCCCN(Cc1nccc2c3ccccc3n(CC(=O)N3CCOCC3)c12)[C@H]1CCCc2cccnc21 [drawing 819]", "reading": "30 µM"}
